- test-details: Microsome clearance assay, human
- Format: in vitro ADME
- assay-setup: human liver microsomes, 0.5 mg/ml protein, 5 μM, 1 mM NADPH, 60 minutes
Catalogue of Human Liver Microsome Clint (μL/min/mg protein) values

Examples with answers:
molecule	assay-value
Cc1c(C(=O)O)n2c3ccc(Cl)c(c13)-c1c(nn(C)c1C)CN(S(C)(=O)=O)Cc1cc(n(C)n1)CSc1cc(c3ccc(F)cc3c1)OCCC2 (atropisomer, axis not shown) [Cpd. No. 33]	<2.8 μL/min/mg protein
Cc1c(C(=O)O)n2c3ccc(Cl)c(c13)-c1c(nn(C)c1C)CSCc1cc(n(C)n1)CSc1cc(c3ccccc3c1)OCCC2 (atropisomer, axis not shown) [Cpd. No. 6]	<2.8 μL/min/mg protein

Consider the additional molecule presented here.
GET /values?readout=Human Liver Microsome Clint (μL/min/mg protein)&item= Cc1c(C(=O)O)n2c3ccc(Cl)c(c13)-c1c(nn(C)c1C)CN(S(C)(=O)=O)Cc1cc(n(C)n1)CSc1cc(c3ccc(F)cc3c1)OCCC2 [Cpd. No. 34] <2.8 μL/min/mg protein
